Origin of the recorded values: patent US20100184613A1

The entries below come with measured pIC50 values attached.
- EXPERIMENTAL_SYSTEM: antibody C1, specific for the CRP-derived 8-mer PET sequence YEVQGEVF
- TEST: peptide competition ELISA; soluble peptide competes with coated target peptide for C1
pIC50: −log10 of the molar value.

{"BINDER": "VEVNGEVF [nearest-neighbor 8-mer peptide VEVNGEVF]", "RESULT": "< 3.00"}
{"BINDER": "YEVLGEEF [nearest-neighbor 8-mer peptide YEVLGEEF]", "RESULT": "< 3.00"}

For the next question, use this binder.
Request: If you can, please state the reported pIC50 value of YEVQGEVF [CRP-derived 8-mer PET peptide YEVQGEVF] .
Result: 6.00
